Attribute: pIC50
- experimental_target: Mcl-1/Bim interaction, recombinant human Mcl-1 (171-327) (Homo sapiens)
- Construct: made in house
- Sequence (Q07820 171-327): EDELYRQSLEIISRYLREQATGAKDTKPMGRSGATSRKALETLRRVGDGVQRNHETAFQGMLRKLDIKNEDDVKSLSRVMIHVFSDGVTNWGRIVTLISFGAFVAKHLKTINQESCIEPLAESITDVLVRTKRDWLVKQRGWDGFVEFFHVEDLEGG
- assay_comment: Cell free Mcl-1: Bim Affinity Assay (Mcl-1 HTRF)
- Type: binding
- condition_parameters: cell free Mcl-1:Bim TR-FRET, recombinant human Mcl-1 (171-327)
- Protocol: Cell free Mcl-1: Bim Affinity Assay (Mcl-1 HTRF) The inhibition of the Mcl-1/Bim interaction was measured using a time-resolved fluorescence resonance energy transfer (TR-FRET) assay. […] A biotinylated peptide derived from human Bim (residues 51-76) was purchased from CPC Scientific (San Jose, CA). […] The reaction plates were further incubated overnight and then were read on an Envision® multimode reader (PerkinElmer). […]
Lab note: report pIC50 as minus log10 of the concentration in molar units, number only.

// below: answered compounds
compound	pIC50
C[C@@H]1CS(=O)(=O)NC(=O)c2ccc3c(c2)N(C[C@@H]2CC[C@H]2[C@@H]2C[C@H](CCO2)O1)C[C@@]1(CCCc2cc(Cl)ccc21)CO3 (single isomer, unassigned) [Example 922]	9.01
CN[C@H]1CCCCCS(=O)(=O)NC(=O)c2ccc3c(c2)N(C[C@@H]2CC[C@H]21)C[C@@]1(CCCc2cc(Cl)ccc21)CO3 (single isomer, unassigned)	7.33
CC(C)OC(=O)C[C@@H]1[C@@H](C)C/C=C\[C@H](O)[C@@H]2CC[C@H]2CN2C[C@@]3(CCCc4cc(Cl)ccc43)COc3ccc(cc32)C(=O)NS1(=O)=O [Example 570]	8.07
C[C@H](O)C[C@@H]1CC/C=C/[C@H](O)[C@@H]2CC[C@H]2CN2C[C@@]3(CCCc4cc(Cl)ccc43)COc3ccc(cc32)C(=O)NS1(=O)=O (single isomer, unassigned)	9.55

Input: Param item = O=C1NS(=O)(=O)CCC[C@H](O)CC[C@@H]2CC[C@H]2CN2C[C@@]3(CCCc4cc(Cl)ccc43)COc3ccc1cc32 (single isomer, unassigned) ; retrieve measured pIC50.
Output: 8.64
